Test system: TO-N3-2 (biotin conjugate)
PROTOCOL TEXT: pull-down binding Z-score (relative to library population); higher = stronger binding
CONDITION INFO: RNA library: Library-2
Decide by pull-down binding Z-score: equal to or exceeding -0.1 means TRUE, less means FALSE.

Exercise: Determine whether this sequence has pull-down binding Z-score no lower than -0.1: UUGGUGUGUAUUGCCUUGUCAA [hsa-mir-1179]
Key: TRUE

Exercise: Determine whether this sequence has pull-down binding Z-score no lower than -0.1: `CUUUGAUAAAGCUGGUCAAAAGACUUAUGAAAG`
Key: FALSE

Exercise: Determine whether this sequence has pull-down binding Z-score no lower than -0.1: `UCAAUUAUUAUAAGAAAGUUGA`
Key: FALSE

Exercise: Determine whether this sequence has pull-down binding Z-score no lower than -0.1: CUGGGUUCGGCUGCUACCCCAAA [hsa-mir-6768]
Key: TRUE

Exercise: Determine whether this sequence has pull-down binding Z-score no lower than -0.1: ACAGUGGACUUGGUGACGCUGU [hsa-mir-675]
Key: FALSE

Exercise: Determine whether this sequence has pull-down binding Z-score no lower than -0.1: AGAUAUAUAUAUACCUCAUAUGUAUAUGGUAUAC [hsa-mir-4777]
Key: FALSE

Exercise: Determine whether this sequence has pull-down binding Z-score no lower than -0.1: GCCGGUAGCACACCUUGUAAUGGUGUUGAAGGU [SHAPE_invitro_SARS-CoV-2_Motif_416]
Key: TRUE

Exercise: Determine whether this sequence has pull-down binding Z-score no lower than -0.1: UGAUCAUUAUAUGUAUGAUGAGAUCAU [hsa-mir-4528]
Key: TRUE

Exercise: Determine whether this sequence has pull-down binding Z-score no lower than -0.1: GCGCUUUAGGUCUACACGGGCCGAAGCUAACGCGUUAAGCGC [3-way model-5_mrRNA]
Key: TRUE

Exercise: Determine whether this sequence has pull-down binding Z-score no lower than -0.1: GUGUGGAGAGAGCACUGAGCCUGCCCACC [hsa-mir-6849]
Key: TRUE

Exercise: Determine whether this sequence has pull-down binding Z-score no lower than -0.1: GGGAGAUAACAUUCC [IAV_invivo_M1_M2_7_Motif_7+IAV_invivo_M1_M2_7_Motif_7]
Key: FALSE

Exercise: Determine whether this sequence has pull-down binding Z-score no lower than -0.1: UUGUUCUGAUGUACUACGACAA [hsa-mir-7-3]
Key: FALSE

Exercise: Determine whether this sequence has pull-down binding Z-score no lower than -0.1: GGCUGGACAGGAGAGGGCUCACCCAGG [hsa-mir-6775]
Key: TRUE

Exercise: Determine whether this sequence has pull-down binding Z-score no lower than -0.1: CUGGAAUUGCCGUUUUAG [SHAPE_invivo_SARS-CoV-2_Motif_210]
Key: FALSE

Exercise: Determine whether this sequence has pull-down binding Z-score no lower than -0.1: CUUUUUGCUGAUGGAGGGUCUUGCCUCCAUGGGGAUGGCUG [hsa-mir-4502]
Key: TRUE

Exercise: Determine whether this sequence has pull-down binding Z-score no lower than -0.1: ACCCAGGACUCUUUCAUGACCA [hsa-mir-665]
Key: TRUE

Exercise: Determine whether this sequence has pull-down binding Z-score no lower than -0.1: GUUGAUUUUUGUGGAAAGGGCUAUCAUCUUAUGUCCUUCCCUCAGUCAGC [SHAPE_invitro_SARS-CoV-2_Motif_447]
Key: FALSE

Exercise: Determine whether this sequence has pull-down binding Z-score no lower than -0.1: AAGGAGCUGGUGGCCAUAGUUACGGCGCCGAUCUAAAGUCAUUUGACUUAGGCGACGAGCUUGGCACUGAUCCUU [DMSMaPseq_invitro_SARS-CoV-2_Motif_14]
Key: TRUE

Exercise: Determine whether this sequence has pull-down binding Z-score no lower than -0.1: `CAUGUGAUCUGCACCUCUGAAGACAUG`
Key: TRUE

Exercise: Determine whether this sequence has pull-down binding Z-score no lower than -0.1: AGCCUUCUAUUAUGCCCAGACAGGGCCACCAGAGGGCU [hsa-mir-4448]
Key: FALSE

Exercise: Determine whether this sequence has pull-down binding Z-score no lower than -0.1: `UGCACUUGACCCUCUCUCAGAAACAAAGUGUA`
Key: FALSE

Exercise: Determine whether this sequence has pull-down binding Z-score no lower than -0.1: UAGGGCUGGAUGGUAGGGCCCA [hsa-mir-6890]
Key: TRUE
